What half-life at 1 μM was measured for each of the following?
- methodNotes: Liver microsomes stability
- Assay type: in vitro ADME, human
- recordedConditions: human, human liver microsomes, 1 μM compound, 1 mg/mL human liver microsomes, 1 mM NADPH; read-out: T½ of HLM
Respond with a number, then the unit of measure.

Input: Provide measured half-life at 1 μM value, entry: [2H]C([2H])([2H])Oc1cc(C(=O)Nc2cc3c(cc2Oc2cc(C)cc(C)c2)C(=O)N(C)[C@@H](CC(=O)N2CCC(F)(F)CC2)C(=O)N3)c(Cl)c(OC([2H])([2H])[2H])c1OC([2H])([2H])[2H] [Compound 17]
Output: 20.1 min

Input: // fetch half-life at 1 μM given entry [2H]C([2H])([2H])Oc1cc(C(=O)Nc2cc3c(cc2Oc2cc(C)cc(C)c2)C(=O)N(C)[C@@H](CC(=O)N(OC([2H])([2H])[2H])C([2H])([2H])[2H])C(=O)N3)c(Cl)c(OC([2H])([2H])[2H])c1OC([2H])([2H])[2H] [Compound 39]
Output: 50.6 min

Input: Answer with the recorded half-life at 1 μM of [2H]C([2H])([2H])C([2H])([2H])N(C(=O)C[C@H]1C(=O)Nc2cc(NC(=O)c3cc(OC)c(OC)c(OC)c3Cl)c(Oc3cc(C)cc(C)c3)cc2C(=O)N1C)C([2H])([2H])C([2H])([2H])[2H] [Compound 12] only.
Output: 22.6 min

Input: Note down half-life at 1 μM recorded for CCN(CC)C(=O)C[C@@H]1NC(=O)c2cc(Oc3cc(C)cc(C)c3)c(NC(=O)c3cc(OC)c(OC)c(OC)c3Br)cc2NC1=O [b, reference compound]
Output: 26.3 min

====

Hi there, I'd appreciate the recorded GI50 for every entry that follows.
Report the value in nM with no unit label.

Input: Given "[2H]C([2H])([2H])C([2H])([2H])N(C(=O)C[C@H]1C(=O)Nc2cc(NC(=O)c3cc(OC)c(OC)c(OC)c3Br)c(Oc3cc(C)cc(C)c3)cc2C(=O)N1C)C([2H])([2H])C([2H])([2H])[2H]" , report its GI50 on SF295 (central nervous system tumor).
Output: 10.9

Input: Enter measured GI50, system SF295 (central nervous system tumor), for the molecule shown: "[2H]C([2H])([2H])Oc1cc(C(=O)Nc2cc3c(cc2Oc2cc(C)cc(C)c2)C(=O)N[C@@H](CC(=O)N(C([2H])([2H])C([2H])([2H])[2H])C([2H])([2H])C([2H])([2H])[2H])C(=O)N3)c(Cl)c(OC([2H])([2H])[2H])c1OC([2H])([2H])[2H]"
Output: 13.1

Input: Answer briefly: GI50 recorded on SF295 (central nervous system tumor) for "[2H]C([2H])([2H])Oc1cc(C(=O)Nc2cc3c(cc2Oc2cc(C)cc(C)c2)C(=O)N(C)[C@@H](CC(=O)N(C([2H])([2H])C([2H])([2H])[2H])C([2H])([2H])C([2H])([2H])[2H])C(=O)N3)c(Br)c(OC([2H])([2H])[2H])c1OC([2H])([2H])[2H]"
Output: 7.5

Input: Supply GI50 measured with SF295 (central nervous system tumor) for "[2H]C([2H])([2H])Oc1cc(C(=O)Nc2cc3c(cc2Oc2cc(C)cc(C)c2)C(=O)N[C@@H](CC(=O)N(CC)CC)C(=O)N3)c(Br)c(OC([2H])([2H])[2H])c1OC([2H])([2H])[2H]" .
Output: 6

Input: Provide SF295 (central nervous system tumor) GI50 reading for "[2H]C([2H])([2H])c1cc(Oc2cc3c(cc2NC(=O)c2cc(OC)c(OC)c(OC)c2Cl)NC(=O)[C@H](CC(=O)N(CC)CC)NC3=O)cc(C([2H])([2H])[2H])c1" .
Output: 10.5

Input: Quote SF295 (central nervous system tumor) GI50 for entry "[2H]C([2H])([2H])Oc1cc(C(=O)Nc2cc3c(cc2Oc2cc(C)cc(C)c2)C(=O)N[C@@H](CC(=O)N(C([2H])([2H])[2H])C([2H])([2H])[2H])C(=O)N3)c(Br)c(OC([2H])([2H])[2H])c1OC([2H])([2H])[2H]" .
Output: 11.3

====

- methodNotes: Liver microsomes stability
- Assay type: in vitro ADME, human
- recordedConditions: 1 μM compound, 1 mg/mL human liver microsomes, 1 mM NADPH
propertyName: microsomal CLint at 1 μM (µL/min/mg)
Reply numerically in µL/min/mg, unit not repeated.

Input: Please give the documented microsomal CLint at 1 μM of "[2H]C([2H])([2H])Oc1cc(C(=O)Nc2cc3c(cc2Oc2cc(C)cc(C)c2)C(=O)N[C@@H](CC(=O)N(C)C)C(=O)N3)c(Br)c(OC([2H])([2H])[2H])c1OC([2H])([2H])[2H]"
Output: 2.1

Input: State its microsomal CLint at 1 μM for this compound: "[2H]C([2H])([2H])Oc1cc(C(=O)Nc2cc3c(cc2Oc2cc(C)cc(C)c2)C(=O)N[C@@H](CC(=O)N(C)OC([2H])([2H])[2H])C(=O)N3)c(Br)c(OC([2H])([2H])[2H])c1OC([2H])([2H])[2H]"
Output: 9

Input: Provide one value: measured microsomal CLint at 1 μM of "[2H]C([2H])([2H])c1c(OC)cc(C(=O)Nc2cc3c(cc2Oc2cc(C)cc(C)c2)C(=O)N[C@@H](CC(=O)N(CC)CC)C(=O)N3)c(Cl)c1OC"
Output: 18.1

Input: Specify microsomal CLint at 1 μM for "[2H]C([2H])([2H])c1cc(Oc2cc3c(cc2NC(=O)c2cc(OC)c(OC)c(OC)c2Cl)NC(=O)[C@H](CC(=O)N(CC)CC)NC3=O)cc(C([2H])([2H])[2H])c1" and stop.
Output: 26.9

Input: Kindly indicate its recorded microsomal CLint at 1 μM. Item: "[2H]C([2H])([2H])Oc1cc(C(=O)Nc2cc3c(cc2Oc2cc(C)cc(C)c2)C(=O)N[C@@H](CC(=O)N(OC([2H])([2H])[2H])C([2H])([2H])[2H])C(=O)N3)c(Br)c(OC([2H])([2H])[2H])c1OC([2H])([2H])[2H]"
Output: 7.7

Input: Retrieve microsomal CLint at 1 μM measured for "[2H]C([2H])([2H])Oc1cc(C(=O)Nc2cc3c(cc2Oc2cc(C)cc(C)c2)C(=O)N[C@@H](CC(=O)N(OC)C([2H])([2H])[2H])C(=O)N3)c(Br)c(OC([2H])([2H])[2H])c1OC([2H])([2H])[2H]" and print it.
Output: 7.6

Input: Dear colleague, please send me the reported microsomal CLint at 1 μM for "[2H]C([2H])([2H])Oc1cc(C(=O)Nc2cc3c(cc2Oc2cc(C)cc(C)c2)C(=O)N[C@@H](CC(=O)N(C)OC)C(=O)N3)c(Br)c(OC([2H])([2H])[2H])c1OC([2H])([2H])[2H]" when you can.
Output: 4.3

Input: For the compound "[2H]C([2H])([2H])Oc1cc(C(=O)Nc2cc3c(cc2Oc2cc(C)cc(C)c2)C(=O)N[C@@H](CC(=O)N(OC([2H])([2H])[2H])C([2H])([2H])[2H])C(=O)N3)c(Cl)c(OC([2H])([2H])[2H])c1OC([2H])([2H])[2H]" , report microsomal CLint at 1 μM.
Output: 7.2

Input: Name the recorded microsomal CLint at 1 μM of the compound listed here: "[2H]C([2H])([2H])Oc1cc(C(=O)Nc2cc3c(cc2Oc2cc(C)cc(C)c2)C(=O)N[C@@H](CC(=O)N(CC)CC)C(=O)N3)c(Cl)c(OC([2H])([2H])[2H])c1OC([2H])([2H])[2H]"
Output: 16.5

====

The reader will find GI50 measurements below, all made with SF295 (central nervous system tumor).
Entry rule: numbers only, all in nM.

Input: Specify GI50 for [2H]C([2H])([2H])C([2H])([2H])N(C(=O)C[C@@H]1NC(=O)c2cc(Oc3cc(C)cc(C)c3)c(NC(=O)c3cc(OC)c(OC)c(OC)c3Cl)cc2NC1=O)C([2H])([2H])C([2H])([2H])[2H] [Compound 8] , system SF295 (central nervous system tumor).
Output: 10.3

Input: Determine reported GI50 for [2H]C([2H])([2H])Oc1cc(C(=O)Nc2cc3c(cc2Oc2cc(C)cc(C)c2)C(=O)N(C)[C@@H](CC(=O)N2CCC(F)(F)CC2)C(=O)N3)c(Cl)c(OC([2H])([2H])[2H])c1OC([2H])([2H])[2H] [Compound 17] ; test system: SF295 (central nervous system tumor).
Output: 8

Input: Fetch value of GI50 on SF295 (central nervous system tumor) for [2H]C([2H])([2H])Oc1cc(C(=O)Nc2cc3c(cc2Oc2cc(C)cc(C)c2)C(=O)N(C)[C@@H](CC(=O)N(C)C)C(=O)N3)c(Br)c(OC([2H])([2H])[2H])c1OC([2H])([2H])[2H] [Compound 16] .
Output: 7.6

Input: Give the observed GI50 of [2H]C([2H])([2H])c1c(OC)cc(C(=O)Nc2cc3c(cc2Oc2cc(C)cc(C)c2)C(=O)N[C@@H](CC(=O)N(CC)CC)C(=O)N3)c(Cl)c1OC [Compound 3] for SF295 (central nervous system tumor).
Output: 53.2

Input: Look up and report measured GI50 (SF295 (central nervous system tumor)) for the following compound: [2H]C([2H])([2H])N1C(=O)c2cc(Oc3cc(C)cc(C)c3)c(NC(=O)c3cc(OC)c(OC)c(OC)c3Cl)cc2NC(=O)[C@@H]1CC(=O)N(C([2H])([2H])C([2H])([2H])[2H])C([2H])([2H])C([2H])([2H])[2H] [Compound 19]
Output: 11.8

Input: Report value only: GI50, SF295 (central nervous system tumor), [2H]C([2H])([2H])Oc1cc(C(=O)Nc2cc3c(cc2Oc2cc(C)cc(C)c2)C(=O)N[C@@H](CC(=O)N(OC([2H])([2H])[2H])C([2H])([2H])[2H])C(=O)N3)c(Cl)c(OC([2H])([2H])[2H])c1OC([2H])([2H])[2H] [Compound 38]
Output: 27

Input: Report GI50 on SF295 (central nervous system tumor) for this entry: [2H]C([2H])([2H])Oc1cc(C(=O)Nc2cc3c(cc2Oc2cc(C)cc(C)c2)C(=O)N[C@@H](CC(=O)N(C)O)C(=O)N3)c(Br)c(OC([2H])([2H])[2H])c1OC([2H])([2H])[2H] [Compound 31]
Output: 58

Input: Fill in: GI50 on SF295 (central nervous system tumor), entry [2H]C([2H])([2H])Oc1cc(C(=O)Nc2cc3c(cc2Oc2cc(C)cc(C)c2)C(=O)N[C@@H](CC(=O)N(C)C)C(=O)N3)c(Br)c(OC([2H])([2H])[2H])c1OC([2H])([2H])[2H] [Compound 20]
Output: 19.9
